Data provenance: patent USRE47150

# System Tested: T1, mouse tissue factor pathway inhibitor (TFPI) (mouse, UniProt O54819 29-289, limits assumed)
# T1 construct: bought; also called mTFPI; murine TFPI
# T1 sequence (looked up): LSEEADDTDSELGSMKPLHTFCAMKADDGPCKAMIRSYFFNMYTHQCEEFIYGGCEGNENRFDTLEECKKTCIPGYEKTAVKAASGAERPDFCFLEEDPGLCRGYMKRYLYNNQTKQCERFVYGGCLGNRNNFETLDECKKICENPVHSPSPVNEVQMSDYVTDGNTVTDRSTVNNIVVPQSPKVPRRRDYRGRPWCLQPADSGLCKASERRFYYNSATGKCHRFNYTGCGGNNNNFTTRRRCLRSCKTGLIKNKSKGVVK
# Method Notes: equilibrium ELISA
Readout Label: variant/wild-type
Be sure to follow the number with its unit.

Some solved entries appear below for comparison.
{"Binder": "4B7 HC_D62N (Fab, V domains shown) VH: QVQLQQSGPGLVKPSQTLSLTCAISGDSVSSNSAAWSWIRQSPGRGLEWLGIIYKRSKWYNNYAVSVKSRITINPDTSKNQFSLQLNSVTPEDTAVYYCARWHSDKHWGFDYWGQGTLVTVSS VL: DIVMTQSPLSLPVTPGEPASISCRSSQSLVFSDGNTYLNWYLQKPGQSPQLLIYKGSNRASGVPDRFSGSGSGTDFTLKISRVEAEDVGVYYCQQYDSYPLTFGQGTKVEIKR", "variant/wild-type": "146 ratio"}
{"Binder": "4B7 LC_N35L LC_G56A (Fab, V domains shown) VH: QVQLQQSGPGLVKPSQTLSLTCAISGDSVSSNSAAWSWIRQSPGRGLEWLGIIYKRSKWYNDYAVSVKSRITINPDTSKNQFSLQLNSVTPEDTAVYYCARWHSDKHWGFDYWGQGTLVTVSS VL: DIVMTQSPLSLPVTPGEPASISCRSSQSLVFSDGLTYLNWYLQKPGQSPQLLIYKASNRASGVPDRFSGSGSGTDFTLKISRVEAEDVGVYYCQQYDSYPLTFGQGTKVEIKR", "variant/wild-type": "6.9 ratio"}
{"Binder": "4B7 LC_D33F (Fab, V domains shown) VH: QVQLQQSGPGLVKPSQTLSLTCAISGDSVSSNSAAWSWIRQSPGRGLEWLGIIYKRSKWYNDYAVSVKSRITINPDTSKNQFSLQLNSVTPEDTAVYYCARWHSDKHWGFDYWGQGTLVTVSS VL: DIVMTQSPLSLPVTPGEPASISCRSSQSLVFSFGNTYLNWYLQKPGQSPQLLIYKGSNRASGVPDRFSGSGSGTDFTLKISRVEAEDVGVYYCQQYDSYPLTFGQGTKVEIKR", "variant/wild-type": "7 ratio"}

Here are 3 binders. What values of variant/wild-type were reported for them?
1. 4B7 HC_D62L (Fab, V domains shown) VH: QVQLQQSGPGLVKPSQTLSLTCAISGDSVSSNSAAWSWIRQSPGRGLEWLGIIYKRSKWYNLYAVSVKSRITINPDTSKNQFSLQLNSVTPEDTAVYYCARWHSDKHWGFDYWGQGTLVTVSS VL: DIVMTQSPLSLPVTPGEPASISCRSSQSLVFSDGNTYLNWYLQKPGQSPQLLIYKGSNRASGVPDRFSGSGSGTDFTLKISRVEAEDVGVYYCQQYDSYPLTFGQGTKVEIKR
2. 4B7 HC_H103G (Fab, V domains shown) VH: QVQLQQSGPGLVKPSQTLSLTCAISGDSVSSNSAAWSWIRQSPGRGLEWLGIIYKRSKWYNDYAVSVKSRITINPDTSKNQFSLQLNSVTPEDTAVYYCARWGSDKHWGFDYWGQGTLVTVSS VL: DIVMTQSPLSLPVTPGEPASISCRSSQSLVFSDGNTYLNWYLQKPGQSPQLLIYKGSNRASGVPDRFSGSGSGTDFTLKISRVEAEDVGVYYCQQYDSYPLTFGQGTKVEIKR
3. 4B7 HC_K58M HC_D62N (Fab, V domains shown) VH: QVQLQQSGPGLVKPSQTLSLTCAISGDSVSSNSAAWSWIRQSPGRGLEWLGIIYKRSMWYNNYAVSVKSRITINPDTSKNQFSLQLNSVTPEDTAVYYCARWHSDKHWGFDYWGQGTLVTVSS VL: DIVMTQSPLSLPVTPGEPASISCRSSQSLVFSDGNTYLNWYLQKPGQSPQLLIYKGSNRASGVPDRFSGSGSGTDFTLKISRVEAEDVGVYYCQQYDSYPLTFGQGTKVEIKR

Solution:
1. 22.9 ratio
2. 10.7 ratio
3. 15.2 ratio
